Examples of molecules with documented inhibition follow.
- SYSTEM: Proto-oncogene tyrosine-protein kinase receptor Ret (Homo sapiens);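 note: each listed value is an averaged inhibition figure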
- APPLIED CONDITIONS: at 1 µM
RECORDED ENDPOINT: inhibition (%)

1. CNC(=O)c1cncc(/C=C/c2ccccc2C)c1 = 6.36
2. COc1cc(Nc2ncc(-c3ccccc3)o2)cc(OC)c1 = 8.97
3. O=C1Nc2ccccc2/C1=C1\CCc2cc(O)ccc21 = 66.3
4. Cc1cc(O)cc(C)c1/C=C/c1cncc(C(=O)OC(C)(C)C)c1 = 7.34
5. CN(c1ccc(NC(=O)NCCN2CCOCC2)cc1)c1ccnc(Nc2ccc(CS(C)(=O)=O)cc2)n1 = 58.5
6. COc1cccc(Nc2nccc(-c3cnn4ncccc34)n2)c1 = 17.1

====

- SYSTEM: Tyrosine-protein kinase Lyn (Homo sapiens) (UniProt P07948);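 note: mean inhibition of the LYN A splice variant of the kinase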
- Sequence (P07948 2-512 limits assumed): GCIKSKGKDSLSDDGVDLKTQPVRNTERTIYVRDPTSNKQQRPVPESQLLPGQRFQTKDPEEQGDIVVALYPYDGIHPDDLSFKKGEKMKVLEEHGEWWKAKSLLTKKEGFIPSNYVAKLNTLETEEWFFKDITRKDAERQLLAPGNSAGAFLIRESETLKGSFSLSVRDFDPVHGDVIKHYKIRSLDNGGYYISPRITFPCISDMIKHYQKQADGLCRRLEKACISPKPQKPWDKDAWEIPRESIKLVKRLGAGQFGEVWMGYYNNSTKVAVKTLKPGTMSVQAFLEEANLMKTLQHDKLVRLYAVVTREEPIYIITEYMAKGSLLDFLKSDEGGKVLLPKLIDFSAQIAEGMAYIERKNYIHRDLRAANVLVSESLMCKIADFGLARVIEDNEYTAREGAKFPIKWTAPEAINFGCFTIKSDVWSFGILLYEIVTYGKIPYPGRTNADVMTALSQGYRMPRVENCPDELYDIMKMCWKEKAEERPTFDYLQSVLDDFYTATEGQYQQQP
- APPLIED CONDITIONS: at 0.1 µM
- Description: GSK_PKIS: LYN A (splice variant) mean inhibition at 0.1 uM [Nanosyn]
RECORDED ENDPOINT: inhibition (%)

1. OCCCNc1nccc(-c2c(-c3ccc(F)cc3)nn3cc(C(F)(F)F)ccc23)n1 = 3.88
2. CCCNc1cccc(-n2ncc3c(N/N=C/c4ccncc4)ncnc32)c1 = 18
3. O=C(O[C@H]1CN[C@H](C#Cc2cc3ncnc(Nc4ccc5c(cnn5Cc5ccccc5)c4)c3s2)C1)N1CCOCC1 = 1.1
4. COc1cc(N2CCN(C(C)C)CC2)ccc1Nc1nc(Nc2cccc3ncccc23)c2cc[nH]c2n1 = 0.41
5. Cc1nnc(-c2cccc(-c3ccc(C(=O)NCC4CC4)cc3)c2)o1 = 7.2

====

- SYSTEM: Insulin-like growth factor 1 receptor (Homo sapiens);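 note: values are mean percent inhibition of IGF1R kinase activity, from the GSK published kinase inhibitor set (PKIS) screening panel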
- APPLIED CONDITIONS: at 0.1 µM
RECORDED ENDPOINT: inhibition (%)

1) CS(=O)(=O)Nc1ccc(-c2ccc3c(NC(=O)C4CC4)n[nH]c3c2)cc1 = 7.15
2) CCn1c(-c2nonc2N)nc2cncc(C(=O)NCCNC)c21 = 1.12
3) COc1cccc(Nc2nccc(-c3cnn4ncccc34)n2)c1 = 14.5
4) COc1c(C(N)=O)cc(-c2ccc(Cl)cc2)cc1-c1ccc(S(N)(=O)=O)cc1 = 7.44
5) COc1ccc(Nc2ncc(-c3ccccc3)o2)cc1OC = 0.16
6) O=C(Nc1n[nH]c2nnc(-c3cccnc3)cc12)C1CC1 = 0.22
7) CNC(=O)c1ncccc1Nc1nc(Nc2cc3c(cc2OC)CCCN3C(=O)CN(C)C)nc2[nH]ccc12 = 97
8) CN(C)CCNC(=O)Nc1ccc(N(C)c2ccnc(Nc3ccc(CS(C)(=O)=O)cc3)n2)cc1 = 5.44
9) O=C1Nc2ccccc2/C1=C1\CCc2cc(O)ccc21 = 4.61
10) COc1cc(N2CCN(C(C)C)CC2)ccc1Nc1nc(Nc2cccc3ncccc23)c2cc[nH]c2n1 = 12
11) COc1ccccc1-c1cc(/C=C2\C(=O)Nc3ncc(Br)cc32)cc(Br)c1O = 0.89
12) Fc1cccc(COc2ccc(Nc3ncncc3C#Cc3ccccc3)cc2Cl)c1 = 3.73
13) Cc1cc(O)cc(C)c1/C=C/c1cncc(C(=O)OC(C)(C)C)c1 = 4.61
14) Cc1nnc(-c2cccc(-c3ccc(C(=O)NCC4CC4)cc3)c2)o1 = 3.76
15) c1ccc(-c2n[nH]cc2-c2ccnc(-c3ccc(OCCn4ccnc4)cc3)c2)nc1 = 6.59
16) FC(F)(F)CNc1nccc(-c2cnn3ncccc23)n1 = 1.46
17) c1cnn2ncc(-c3ccnc(NCCCN4CCOCC4)n3)c2c1 = 3.62
18) COc1cc(N2CCN(C(C)C)CC2)ccc1Nc1nc(Nc2cccc(F)c2C(=O)O)c2cc[nH]c2n1 = 65.7
19) NS(=O)(=O)c1cccc(N/C=C2\C(=O)Nc3ccccc32)c1 = 2.44
20) N#Cc1ccc2c(-c3ccnc(NC4CC4)n3)c(-c3ccc(F)cc3)nn2c1 = 1.58
21) CN1CCC(n2cnc(-c3ccc(F)cc3)c2-c2ccnc(NCCO)n2)CC1 = 3.65
22) CNC(=O)c1cncc(/C=C/c2ccccc2C)c1 = 3.6

====

# key: entry, value: inhibition
- SYSTEM: Tyrosine-protein kinase Fgr (Homo sapiens) (UniProt P09769);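 note: value reported as mean kinase inhibition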
- Sequence (P09769 2-529 limits assumed): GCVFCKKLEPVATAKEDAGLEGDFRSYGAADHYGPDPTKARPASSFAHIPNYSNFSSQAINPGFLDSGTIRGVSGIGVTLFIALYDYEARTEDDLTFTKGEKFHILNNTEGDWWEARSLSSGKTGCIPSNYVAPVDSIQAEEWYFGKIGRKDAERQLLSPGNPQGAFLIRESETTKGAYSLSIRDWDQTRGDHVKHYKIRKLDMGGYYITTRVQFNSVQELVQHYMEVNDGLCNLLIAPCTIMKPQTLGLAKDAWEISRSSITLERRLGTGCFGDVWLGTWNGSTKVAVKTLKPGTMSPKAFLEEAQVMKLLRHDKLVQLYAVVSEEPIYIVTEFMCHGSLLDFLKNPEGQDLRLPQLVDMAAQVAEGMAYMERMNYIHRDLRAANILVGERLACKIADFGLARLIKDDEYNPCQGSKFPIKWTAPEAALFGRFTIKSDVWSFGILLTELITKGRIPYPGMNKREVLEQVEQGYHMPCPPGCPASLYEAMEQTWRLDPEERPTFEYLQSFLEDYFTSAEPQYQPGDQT
- APPLIED CONDITIONS: at 1 µM
RECORDED ENDPOINT: inhibition (%)

1. O=C(Nc1n[nH]c2nnc(-c3cccnc3)cc12)C1CC1 = 2.95
2. CN(c1ccc(NC(=O)NCCN2CCOCC2)cc1)c1ccnc(Nc2ccc(CS(C)(=O)=O)cc2)n1 = 11.3
3. O=C(O[C@H]1CN[C@H](C#Cc2cc3ncnc(Nc4ccc(OCc5cccc(F)c5)c(Cl)c4)c3s2)C1)N1CCOCC1 = 1.43
4. CC(C)c1ccc(-c2cc(-c3c[nH]nc3-c3ccccn3)ccn2)cc1 = 1.8
5. COc1cccc(-n2ncc3c(N/N=C/c4ccc(C(=O)NCCN(C)C)cc4)ncnc32)c1 = 82.1

====

- SYSTEM: Leucine-rich repeat serine/threonine-protein kinase 2 (Homo sapiens);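 note: mean percent inhibition of LRRK2 measured in the GSK PKIS kinase inhibitor set screen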
- APPLIED CONDITIONS: at 1 µM
RECORDED ENDPOINT: inhibition (%)

1. CC1=C(C(=O)Nc2ccc3[nH]nc(C)c3c2)C(c2ccc(C(F)(F)F)cc2)CC(=O)N1 (centres undefined) = 21.3
2. Cc1cc(O)cc(C)c1/C=C/c1cncc(C(N)=O)c1 = 6.26
3. N#Cc1cccc(Nc2ncc(-c3ccccc3)o2)c1 = 2.11
4. O=C(O[C@H]1CN[C@H](C#Cc2cc3ncnc(Nc4ccc5c(ccn5Cc5cc(F)ccc5F)c4)c3s2)C1)N1CCOCC1 = 6.3
5. CNC(=O)c1cncc(/C=C/c2ccccc2C)c1 = 6.67
6. COc1cc(N2CCN(C(C)C)CC2)ccc1Nc1nc(Nc2cccc(F)c2C(=O)O)c2cc[nH]c2n1 = 16.3
7. COc1ccccc1-c1cc(/C=C2\C(=O)Nc3ncc(Br)cc32)cc(Br)c1O = 17.6
8. OCCCNc1nccc(-c2c(-c3ccc(F)cc3)nn3cc(C(F)(F)F)ccc23)n1 = 7.46
9. CCS(=O)(=O)c1ccc(OC)c(Nc2ncc(-c3cccc(F)c3)o2)c1 = 14.5
10. COc1c(C(N)=O)cc(-c2ccc(Cl)cc2)cc1-c1ccc(S(N)(=O)=O)cc1 = 6.11
11. CS(=O)(=O)Nc1ccc(-c2cc(-c3ccccc3)cc(C(N)=O)c2N)cc1 = 4.15
12. Fc1cccc(COc2ccc(Nc3ncncc3C#Cc3ccccc3)cc2Cl)c1 = 7.01
13. O=C(O[C@H]1CN[C@H](C#Cc2cc3ncnc(Nc4ccc5c(cnn5Cc5ccccc5)c4)c3s2)C1)N1CCOCC1 = 4.4
14. Cc1cc(O)cc(C)c1/C=C/c1cncc(C(=O)OC(C)(C)C)c1 = 9.43

====

- SYSTEM: MAP/microtubule affinity-regulating kinase 4 (Homo sapiens) (UniProt Q96L34);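 note: reported value is a mean MARK4 inhibition at 1 µM, taken from the GSK PKIS screening set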
- Sequence (Q96L34 whole entry): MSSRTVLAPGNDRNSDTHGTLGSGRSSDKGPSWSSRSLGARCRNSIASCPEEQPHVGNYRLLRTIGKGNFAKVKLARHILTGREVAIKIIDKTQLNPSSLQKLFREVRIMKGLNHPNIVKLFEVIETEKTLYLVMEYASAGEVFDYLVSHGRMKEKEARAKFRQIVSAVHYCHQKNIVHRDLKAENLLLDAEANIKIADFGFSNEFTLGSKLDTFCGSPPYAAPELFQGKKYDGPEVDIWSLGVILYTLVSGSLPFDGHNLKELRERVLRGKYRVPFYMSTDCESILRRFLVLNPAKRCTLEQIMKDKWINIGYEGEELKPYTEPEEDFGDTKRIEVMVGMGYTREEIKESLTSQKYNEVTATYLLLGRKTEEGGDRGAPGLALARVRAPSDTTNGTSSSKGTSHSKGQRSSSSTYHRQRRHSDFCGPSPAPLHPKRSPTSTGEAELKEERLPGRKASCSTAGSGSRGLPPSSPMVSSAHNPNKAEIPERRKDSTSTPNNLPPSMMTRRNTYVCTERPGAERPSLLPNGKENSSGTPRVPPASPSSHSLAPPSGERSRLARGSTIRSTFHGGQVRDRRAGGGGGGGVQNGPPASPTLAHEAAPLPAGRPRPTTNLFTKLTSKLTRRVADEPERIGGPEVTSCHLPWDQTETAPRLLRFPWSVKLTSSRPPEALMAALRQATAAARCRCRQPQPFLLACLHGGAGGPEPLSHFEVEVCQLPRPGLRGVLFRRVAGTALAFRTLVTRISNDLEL
- APPLIED CONDITIONS: at 1 µM
Examples of molecules with documented inhibition follow.
RECORDED ENDPOINT: inhibition (%)

1) O=C(O[C@H]1CN[C@H](C#Cc2cc3ncnc(Nc4ccc(OCc5cccc(F)c5)c(Cl)c4)c3s2)C1)N1CCOCC1 = 0.94
2) COc1ccc(-c2nn3ncccc3c2-c2ccnc(Nc3ccc(F)c(F)c3)n2)cc1 = 1.84
3) CCS(=O)(=O)c1ccc(OC)c(Nc2ncc(-c3cccc(F)c3)o2)c1 = 2.65
4) CN1CCC(n2cnc(-c3ccc(F)cc3)c2-c2ccnc(NCCO)n2)CC1 = 2.05
5) COC(=O)Nc1nc2ccc(Oc3ccc(NC(=O)Nc4cc(C(F)(F)F)ccc4F)cc3)cc2s1 = 0.37

====

Attribute: inhibition
- SYSTEM: Cyclin-dependent kinase 6 (Homo sapiens) (UniProt Q00534);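 note: mean percent inhibition of CDK6 complexed with cyclin D3, from the GSK PKIS kinase inhibitor screen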
- Sequence (Q00534 whole entry): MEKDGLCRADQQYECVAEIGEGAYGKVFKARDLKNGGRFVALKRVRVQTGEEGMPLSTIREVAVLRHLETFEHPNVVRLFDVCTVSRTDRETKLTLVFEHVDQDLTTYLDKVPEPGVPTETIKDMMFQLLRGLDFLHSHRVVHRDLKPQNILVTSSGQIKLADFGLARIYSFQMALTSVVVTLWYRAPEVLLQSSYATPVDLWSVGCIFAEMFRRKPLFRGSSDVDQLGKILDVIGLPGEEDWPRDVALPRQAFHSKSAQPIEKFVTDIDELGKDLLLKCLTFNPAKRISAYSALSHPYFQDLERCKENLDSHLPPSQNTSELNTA
- APPLIED CONDITIONS: at 0.1 µM
RECORDED ENDPOINT: inhibition (%)

1. Fc1cccc(COc2ccc(Nc3ncncc3C#Cc3ccccc3)cc2Cl)c1 = 3.3
2. CNC(=O)c1ncccc1Nc1nc(Nc2cc3c(cc2OC)CCCN3C(=O)CN(C)C)nc2[nH]ccc12 = 3.87
3. CCS(=O)(=O)c1ccc(OC)c(Nc2ncc(-c3cccc(F)c3)o2)c1 = 3.05
4. COc1cc2c(cc1Nc1nc(Nc3cccc(F)c3C(N)=O)c3cc[nH]c3n1)N(C(=O)CN1CCN(C(C)C)CC1)CC2 = -4.06
5. CCOc1ccc2c(-c3ccnc(Nc4cc(OC)cc(C(F)(F)F)c4)n3)cnn2n1 = 2.68
6. NS(=O)(=O)c1cccc(N/C=C2\C(=O)Nc3ccccc32)c1 = 2.67
7. CNC(=O)c1cncc(/C=C/c2ccccc2C)c1 = 3.69
8. CN1CCC(n2cnc(-c3ccc(F)cc3)c2-c2ccnc(NCCO)n2)CC1 = 3.75
9. NS(=O)(=O)c1ccc(N/N=C2\C(=O)Nc3ccc(C(=O)NCc4ccncc4)cc32)cc1 = 8.64
10. CC1=C(C(=O)Nc2ccc3[nH]ncc3c2)C(c2ccc(F)cc2)N=C(c2ccc(C(F)(F)F)nc2)N1 (stereo unspecified) = 2.17
11. N#Cc1cccc(Nc2ncc(-c3ccccc3)o2)c1 = 21.9
12. Cc1c2ccc(N(C)c3ccnc(Nc4cccc(S(N)(=O)=O)c4)n3)cc2nn1C = -1.51
13. CS(=O)(=O)Nc1ccc(-c2ccc3c(NC(=O)C4CC4)n[nH]c3c2)cc1 = 7.5
14. COc1c(C(N)=O)cc(-c2ccc(Cl)cc2)cc1-c1ccc(S(N)(=O)=O)cc1 = -0.9
15. COC(=O)Nc1nc2ccc(Oc3ccc(NC(=O)Nc4cc(C(F)(F)F)ccc4F)cc3)cc2s1 = 0.38
16. CS(=O)(=O)CCNCc1ccc(-c2ccc3ncnc(Nc4ccc(OCc5ccccc5)cc4)c3c2)o1 = -1.55
17. CCn1c(-c2nonc2N)nc2cncc(C(=O)NCCNC)c21 = -0.66
18. COc1ccc(Nc2ncc(-c3ccccc3)o2)cc1OC = -1.71
19. Cn1c(-c2nonc2N)nc2cnccc21 = -4.08
20. Cc1cc(O)cc(C)c1/C=C/c1cncc(C(N)=O)c1 = 3.58
21. c1ccc(-c2n[nH]cc2-c2ccnc(-c3ccc(OCCn4ccnc4)cc3)c2)nc1 = 1.43
